Conditions: in isopropanol, 318.15 K
reported.property: solubility (mole fraction)
Lab note: jot down the number only; don't add units.

# get_value(readout='solubility (mole fraction)', item= CNC[C@H](O)[C@@H](O)[C@H](O)[C@H](O)CO.Cc1c(Nc2ncccc2C(=O)O)cccc1C(F)(F)F ) 0.00433

* * *

Details: in methanol, 288.15 K
reported.property: solubility (mole fraction)
Lab note: jot down the number only; don't add units.

# get_value(readout='solubility (mole fraction)', item= CNC[C@H](O)[C@@H](O)[C@H](O)[C@H](O)CO.Cc1c(Nc2ncccc2C(=O)O)cccc1C(F)(F)F ) 0.024

* * *

Conditions: in methanol, 318.15 K
reported.property: solubility (mole fraction)
Lab note: jot down the number only; don't add units.

# get_value(readout='solubility (mole fraction)', item= CNC[C@H](O)[C@@H](O)[C@H](O)[C@H](O)CO.Cc1c(Nc2ncccc2C(=O)O)cccc1C(F)(F)F ) 0.08

* * *

Conditions: in acetonitrile, 293.15 K
reported.property: solubility (mole fraction)
Lab note: jot down the number only; don't add units.

# get_value(readout='solubility (mole fraction)', item= CNC[C@H](O)[C@@H](O)[C@H](O)[C@H](O)CO.Cc1c(Nc2ncccc2C(=O)O)cccc1C(F)(F)F ) 4.58e-05

* * *

Conditions: in ethanol, 318.15 K
reported.property: solubility (mole fraction)

# get_value(readout='solubility (mole fraction)', item= CNC[C@H](O)[C@@H](O)[C@H](O)[C@H](O)CO.Cc1c(Nc2ncccc2C(=O)O)cccc1C(F)(F)F ) 0.0228

* * *

Conditions: in methanol, 313.15 K
reported.property: solubility (mole fraction)
Lab note: jot down the number only; don't add units.

# get_value(readout='solubility (mole fraction)', item= CNC[C@H](O)[C@@H](O)[C@H](O)[C@H](O)CO.Cc1c(Nc2ncccc2C(=O)O)cccc1C(F)(F)F ) 0.0652

* * *

Conditions: in water, 323.15 K
reported.property: solubility (mole fraction)
Lab note: jot down the number only; don't add units.

# get_value(readout='solubility (mole fraction)', item= CNC[C@H](O)[C@@H](O)[C@H](O)[C@H](O)CO.Cc1c(Nc2ncccc2C(=O)O)cccc1C(F)(F)F ) 0.0633

* * *

Details: in isopropanol, 293.15 K
reported.property: solubility (mole fraction)
Lab note: jot down the number only; don't add units.

# get_value(readout='solubility (mole fraction)', item= CNC[C@H](O)[C@@H](O)[C@H](O)[C@H](O)CO.Cc1c(Nc2ncccc2C(=O)O)cccc1C(F)(F)F ) 0.000924

* * *

Settings: in isopropanol, 283.15 K
reported.property: solubility (mole fraction)
Lab note: jot down the number only; don't add units.

# get_value(readout='solubility (mole fraction)', item= CNC[C@H](O)[C@@H](O)[C@H](O)[C@H](O)CO.Cc1c(Nc2ncccc2C(=O)O)cccc1C(F)(F)F ) 0.000626

* * *

Conditions: in acetone, 308.15 K
reported.property: solubility (mole fraction)

# get_value(readout='solubility (mole fraction)', item= CNC[C@H](O)[C@@H](O)[C@H](O)[C@H](O)CO.Cc1c(Nc2ncccc2C(=O)O)cccc1C(F)(F)F ) 0.00275

* * *

Details: in ethanol, 328.15 K
reported.property: solubility (mole fraction)
Lab note: jot down the number only; don't add units.

# get_value(readout='solubility (mole fraction)', item= CNC[C@H](O)[C@@H](O)[C@H](O)[C@H](O)CO.Cc1c(Nc2ncccc2C(=O)O)cccc1C(F)(F)F ) 0.0502

* * *

Conditions: in water, 318.15 K
reported.property: solubility (mole fraction)
Lab note: jot down the number only; don't add units.

# get_value(readout='solubility (mole fraction)', item= CNC[C@H](O)[C@@H](O)[C@H](O)[C@H](O)CO.Cc1c(Nc2ncccc2C(=O)O)cccc1C(F)(F)F ) 0.0504

* * *

Details: in acetonitrile, 313.15 K
reported.property: solubility (mole fraction)
Lab note: jot down the number only; don't add units.

# get_value(readout='solubility (mole fraction)', item= CNC[C@H](O)[C@@H](O)[C@H](O)[C@H](O)CO.Cc1c(Nc2ncccc2C(=O)O)cccc1C(F)(F)F ) 0.00025

* * *

Conditions: in water, 288.15 K
reported.property: solubility (mole fraction)

# get_value(readout='solubility (mole fraction)', item= CNC[C@H](O)[C@@H](O)[C@H](O)[C@H](O)CO.Cc1c(Nc2ncccc2C(=O)O)cccc1C(F)(F)F ) 0.00886

* * *

Settings: in water, 293.15 K
reported.property: solubility (mole fraction)
Lab note: jot down the number only; don't add units.

# get_value(readout='solubility (mole fraction)', item= CNC[C@H](O)[C@@H](O)[C@H](O)[C@H](O)CO.Cc1c(Nc2ncccc2C(=O)O)cccc1C(F)(F)F ) 0.0111

* * *

Conditions: in acetonitrile, 328.15 K
reported.property: solubility (mole fraction)

# get_value(readout='solubility (mole fraction)', item= CNC[C@H](O)[C@@H](O)[C@H](O)[C@H](O)CO.Cc1c(Nc2ncccc2C(=O)O)cccc1C(F)(F)F ) 0.000733

* * *

Details: in ethanol, 323.15 K
reported.property: solubility (mole fraction)
Lab note: jot down the number only; don't add units.

# get_value(readout='solubility (mole fraction)', item= CNC[C@H](O)[C@@H](O)[C@H](O)[C@H](O)CO.Cc1c(Nc2ncccc2C(=O)O)cccc1C(F)(F)F ) 0.0345

* * *

Details: in methanol, 293.15 K
reported.property: solubility (mole fraction)
Lab note: jot down the number only; don't add units.

# get_value(readout='solubility (mole fraction)', item= CNC[C@H](O)[C@@H](O)[C@H](O)[C@H](O)CO.Cc1c(Nc2ncccc2C(=O)O)cccc1C(F)(F)F ) 0.0293

* * *

Conditions: in isopropanol, 303.15 K
reported.property: solubility (mole fraction)
Lab note: jot down the number only; don't add units.

# get_value(readout='solubility (mole fraction)', item= CNC[C@H](O)[C@@H](O)[C@H](O)[C@H](O)CO.Cc1c(Nc2ncccc2C(=O)O)cccc1C(F)(F)F ) 0.00162

* * *

Conditions: in acetonitrile, 323.15 K
reported.property: solubility (mole fraction)
Lab note: jot down the number only; don't add units.

# get_value(readout='solubility (mole fraction)', item= CNC[C@H](O)[C@@H](O)[C@H](O)[C@H](O)CO.Cc1c(Nc2ncccc2C(=O)O)cccc1C(F)(F)F ) 0.000517

* * *

Conditions: in acetonitrile, 308.15 K
reported.property: solubility (mole fraction)

# get_value(readout='solubility (mole fraction)', item= CNC[C@H](O)[C@@H](O)[C@H](O)[C@H](O)CO.Cc1c(Nc2ncccc2C(=O)O)cccc1C(F)(F)F ) 0.000173

* * *

Details: in ethanol, 303.15 K
reported.property: solubility (mole fraction)
Lab note: jot down the number only; don't add units.

# get_value(readout='solubility (mole fraction)', item= CNC[C@H](O)[C@@H](O)[C@H](O)[C@H](O)CO.Cc1c(Nc2ncccc2C(=O)O)cccc1C(F)(F)F ) 0.00775

* * *

Conditions: in acetone, 313.15 K
reported.property: solubility (mole fraction)
Lab note: jot down the number only; don't add units.

# get_value(readout='solubility (mole fraction)', item= CNC[C@H](O)[C@@H](O)[C@H](O)[C@H](O)CO.Cc1c(Nc2ncccc2C(=O)O)cccc1C(F)(F)F ) 0.00354

* * *

Conditions: in ethanol, 293.15 K
reported.property: solubility (mole fraction)
Lab note: jot down the number only; don't add units.

# get_value(readout='solubility (mole fraction)', item= CNC[C@H](O)[C@@H](O)[C@H](O)[C@H](O)CO.Cc1c(Nc2ncccc2C(=O)O)cccc1C(F)(F)F ) 0.00448

* * *

Details: in acetonitrile, 288.15 K
reported.property: solubility (mole fraction)

# get_value(readout='solubility (mole fraction)', item= CNC[C@H](O)[C@@H](O)[C@H](O)[C@H](O)CO.Cc1c(Nc2ncccc2C(=O)O)cccc1C(F)(F)F ) 3.86e-05

* * *

Conditions: in water, 313.15 K
reported.property: solubility (mole fraction)
Lab note: jot down the number only; don't add units.

# get_value(readout='solubility (mole fraction)', item= CNC[C@H](O)[C@@H](O)[C@H](O)[C@H](O)CO.Cc1c(Nc2ncccc2C(=O)O)cccc1C(F)(F)F ) 0.0382

* * *

Conditions: in acetone, 298.15 K
reported.property: solubility (mole fraction)
Lab note: jot down the number only; don't add units.

# get_value(readout='solubility (mole fraction)', item= CNC[C@H](O)[C@@H](O)[C@H](O)[C@H](O)CO.Cc1c(Nc2ncccc2C(=O)O)cccc1C(F)(F)F ) 0.00158

* * *

Conditions: in acetonitrile, 298.15 K
reported.property: solubility (mole fraction)

# get_value(readout='solubility (mole fraction)', item= CNC[C@H](O)[C@@H](O)[C@H](O)[C@H](O)CO.Cc1c(Nc2ncccc2C(=O)O)cccc1C(F)(F)F ) 6.88e-05

* * *

Settings: in ethanol, 283.15 K
reported.property: solubility (mole fraction)
Lab note: jot down the number only; don't add units.

# get_value(readout='solubility (mole fraction)', item= CNC[C@H](O)[C@@H](O)[C@H](O)[C@H](O)CO.Cc1c(Nc2ncccc2C(=O)O)cccc1C(F)(F)F ) 0.00285
